Biological target: Calmodulin-1 (Homo sapiens) (UniProt P0DP23)
Test: CALM1 binders on microarrays, EGTA buffer, profiling panel, biochemical, small-molecule microarray, Cy5-labelled CALM1 (AID 1111);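 note: labelled calmodulin applied in Tris saline Tween buffer holding calcium plus EGTA and DTT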
Conditions: Cy5-CALM1 binding fluorescence, higher = more signal
measurement_label: composite z-score
# output: bare number, no unit

Report composite z-score from Calmodulin-1 (Homo sapiens) (UniProt P0DP23) testing of `COC(=O)C(CC#Cc1ccc2c(c1)[C@]1(C(=O)N2)[C@H](C(=O)NC[C@H](O)c2ccccc2)[C@H]2C(=O)O[C@H](c3ccccc3)[C@H](c3ccccc3)N2[C@@H]1c1ccc(OCCO)cc1)C(=O)OC`
1.5

Report composite z-score from Calmodulin-1 (Homo sapiens) (UniProt P0DP23) testing of `COCCOC(=O)N1C(=O)[C@@]2(c3cc(C#CCC(C(=O)OC)C(=O)OC)ccc31)[C@H](c1ccccc1OCCO)N1[C@H](c3ccccc3)[C@H](c3ccccc3)OC(=O)[C@H]1[C@@H]2C(=O)N1CCc2cc(OC)c(OC)cc2C1`
1.54

Report composite z-score from Calmodulin-1 (Homo sapiens) (UniProt P0DP23) testing of COC(=O)c1ccc(C(O)C2C=CC3C(=O)N(C)C(=O)C3N2NC(=O)OC(C)(C)C)o1 (stereo unspecified)
0.81

Report composite z-score from Calmodulin-1 (Homo sapiens) (UniProt P0DP23) testing of `O=C(O)[C@@]1(Cc2ccccc2)N=C(c2ccc(OCCCO)cc2)O[C@H]1c1ccccc1`
0.102

Report composite z-score from Calmodulin-1 (Homo sapiens) (UniProt P0DP23) testing of O=C1OCC=C[C@H]2OC34C=CCN(c5ccc6ccccc6c5)C(=O)[C@H]3N(CCCO)C(=O)[C@@H]4[C@@H]12 (stereo partly specified)
-0.0892

Report composite z-score from Calmodulin-1 (Homo sapiens) (UniProt P0DP23) testing of C=CCC(OC(C)=O)[C@@H]1[C@@H](N(Cc2cc3ccccc3o2)C(=O)c2ccc(C)cc2)c2cc(OCCCO)ccc2N1C(=O)c1ccc2ccccc2c1 (stereo partly specified)
-0.0375
